Attribution: patent US10253007B2

Tested on: MDA-MB-436 breast cancer
ASSAY NAME: MTT assay, proliferation inhibition
Format: cell-based
MEASUREMENT SETUP: Homo sapiens, read-out: Proliferation inhibition rate

[
  {
    "COMPOUND": "CO[C@H]1C(=O)[C@]2(C)[C@@H](OC(=O)N(C)C)C[C@H]3OC[C@@]3(OC(C)=O)[C@H]2[C@H](OC(=O)c2ccccc2)[C@]2(O)C[C@H](OC(=O)[C@H](O)[C@@H](NC(=O)c3ccccc3)c3ccccc3)C(C)=C1C2(C)C",
    "inhibition at 1 µM / %": 74.4
  },
  {
    "COMPOUND": "COC(=O)O[C@H]1C(=O)[C@]2(C)[C@@H](OC)C[C@H]3OC[C@@]3(OC(C)=O)[C@H]2[C@H](OC(=O)c2ccccc2)[C@]2(O)C[C@H](OC(=O)[C@H](O)[C@H](CC(C)C)NC(=O)OC(C)(C)C)C(C)=C1C2(C)C",
    "inhibition at 1 µM / %": 84.3
  },
  {
    "COMPOUND": "COC(=O)O[C@H]1C(=O)[C@]2(C)[C@@H](OC)C[C@H]3OC[C@@]3(OC(C)=O)[C@H]2[C@H](OC(=O)c2ccccc2)[C@]2(O)C[C@H](OC(=O)[C@H](O)[C@@H](NC(=O)OC(C)(C)C)c3ccccc3)C(C)=C1C2(C)C",
    "inhibition at 1 µM / %": 76.3
  },
  {
    "COMPOUND": "COC(=O)O[C@H]1C(=O)[C@]2(C)[C@@H](OC)C[C@H]3OC[C@@]3(OC(C)=O)[C@H]2[C@H](OC(=O)c2ccccc2)[C@]2(O)C[C@H](OC(=O)[C@H](O)[C@@H](NC(=O)c3ccccc3)c3ccccc3)C(C)=C1C2(C)C",
    "inhibition at 1 µM / %": 83.3
  },
  {
    "COMPOUND": "CO[C@H]1C(=O)[C@]2(C)CC[C@H]3OC[C@@]3(OC(C)=O)[C@H]2[C@H](OC(=O)c2ccccc2)[C@]2(O)C[C@H](OC(=O)[C@H](O)[C@H](CC(C)C)NC(=O)OC(C)(C)C)C(C)=C1C2(C)C",
    "inhibition at 1 µM / %": 79.5
  },
  {
    "COMPOUND": "CO[C@H]1C[C@H]2OC[C@@]2(OC(C)=O)[C@H]2[C@H](OC(=O)c3ccccc3)[C@]3(O)C[C@H](OC(=O)[C@H](O)[C@@H](NC(=O)OC(C)(C)C)c4ccccc4)C(C)=C([C@@H](OC(=O)N(C)C)C(=O)[C@]12C)C3(C)C",
    "inhibition at 1 µM / %": 81.1
  },
  {
    "COMPOUND": "COC(=O)O[C@H]1C[C@H]2OC[C@@]2(OC(C)=O)[C@H]2[C@H](OC(=O)c3ccccc3)[C@]3(O)C[C@H](OC(=O)[C@H](O)[C@@H](NC(=O)c4ccccc4)c4ccccc4)C(C)=C([C@@H](OC)C(=O)[C@]12C)C3(C)C",
    "inhibition at 1 µM / %": 86.1
  },
  {
    "COMPOUND": "CC(=O)O[C@H]1C(=O)[C@@]2(C)[C@H]([C@H](OC(=O)c3ccccc3)[C@]3(O)C[C@H](OC(=O)[C@H](O)[C@@H](NC(=O)c4ccccc4)c4ccccc4)C(C)=C1C3(C)C)[C@]1(OC(C)=O)CO[C@@H]1C[C@@H]2O [Paclitaxel, reference compound]",
    "inhibition at 1 µM / %": 83.1
  }
]
